System: NK-92 (IL-2 2.5 ng/mL);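 note: normalised to DMSO-only wells as negative and benzethonium chloride as positive control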
Test: percent inhibition of viability; higher = more inhibition
Details: 72 h; 10000 nM
Quick reference for percent inhibition of viability among some molecules

# molecule, percent inhibition of viability
rows = [
    ("Cc1nc(C(=O)NCC(=O)O)c(O)c2ccc(Oc3ccccc3)cc12 [FG-4592] (max concentration tested 10000 nM)", "8.29%"),
    ("CNCc1ccc(-c2[nH]c3cc(F)cc4c3c2CCNC4=O)cc1 [Rucaparib] (max concentration tested 10000 nM)", "47.7%"),
    ("Cc1c(C(=O)Nc2ccc(N3C[C@@H](C)O[C@@H](C)C3)nc2)cccc1-c1ccc(OC(F)(F)F)cc1 [Sonidegib] (max concentration tested 10000 nM)", "79.3%"),
    ("C#Cc1cccc(Nc2ncnc3cc(OCCOC)c(OCCOC)cc23)c1 [Erlotinib] (max concentration tested 10000 nM)", "43.1%"),
    ("Cc1nc(N)sc1-c1ccnc(Nc2ccc(N3CCOCC3)cc2)n1 [CYC-116] (max concentration tested 10000 nM)", "72.8%"),
    ("Cc1ncc(-c2ccnc(Nc3ccc(S(C)(=O)=O)cc3)n2)n1C(C)C [AZD-5438] (max concentration tested 10000 nM)", "104%"),
]
